Reported melting point values for a set of compounds

{"compound": "Cc1ccn2c(-c3ccnc(-c4ccc(OCC(N)=O)cc4)c3)c(-c3cccc(C)n3)nc2c1", "melting point [°C]": 213}
{"compound": "CC1(C)C(C=CC(=O)OC2CC2)C1C(=O)OC(C#N)c1cccc(Oc2ccccc2)c1 (stereo not given)", "melting point [°C]": 62}
{"compound": "CC1CC(=O)NN=C1c1ccc2c(c1)nc(C1CC1)n2Cc1ccc(-c2ccccc2-c2nnn[nH]2)cc1 (stereo not given)", "melting point [°C]": 265}
{"compound": "CCOC(=O)c1ccc(N)cc1C(=O)OCC", "melting point [°C]": 95.6}

###

Reported melting point values for a set of compounds
measure: melting point

{"compound": "CCN(CC)S(=O)(=O)c1ccccc1N", "measure": "melting point", "measured": "45 to 51 °C"}
{"compound": "COc1ccc(-c2ccc(C(=O)O)cc2)cc1OCCCCc1ccccc1", "measure": "melting point", "measured": "178 to 179 °C"}
{"compound": "CCOC(=O)C(C#N)=Cc1cc(OC)c(C(=O)OC)c(OC)c1", "measure": "melting point", "measured": "142 to 144 °C"}
{"compound": "Cc1ccc(C(=O)Nc2ccc(C=O)c(C(F)(F)F)c2)cc1Br", "measure": "melting point", "measured": "194 to 195 °C"}
{"compound": "CCCOCCOC(=O)C1=C(C)NC(C)=C(P(=O)(OC(C)C)OC(C)C)C1c1cccc([N+](=O)[O-])c1 (stereo unspecified)", "measure": "melting point", "measured": "125 to 126 °C"}
{"compound": "CCOC(=O)c1cn2c(cc(Cl)c3ccccc32)n1", "measure": "melting point", "measured": "169 to 170 °C"}
{"compound": "CN1CCCN(Cc2nc(-c3ccc4c(c3)Nc3ccccc3S4)cs2)CC1", "measure": "melting point", "measured": "135 to 137 °C"}
{"compound": "O=C(Cc1c[nH]c2ccccc12)N1CCN(C(=O)c2cc(C(F)(F)F)cc(C(F)(F)F)c2)[C@H](Cc2ccccc2)C1", "measure": "melting point", "measured": "201 to 210 °C"}
{"compound": "Cc1cc(-c2ccccc2)n2nc(C(=O)N(C)C3CCCCC3)cc2n1", "measure": "melting point", "measured": "158 to 162 °C"}
{"compound": "OC(CNC(=S)NCc1ccc(Cl)cc1)(Cn1cncn1)c1ccc(Cl)cc1Cl (stereo unspecified)", "measure": "melting point", "measured": "209 to 210 °C"}
{"compound": "Cn1c(CNCC2CCOCC2)cc2cc(NC(=O)c3ccc(OC[C@@H]4CCCO4)cc3)ccc21", "measure": "melting point", "measured": "157 to 158 °C"}
{"compound": "CCc1ccc(C(=O)c2ccccc2C(=O)O)c(CC)c1", "measure": "melting point", "measured": "115 to 118 °C"}
{"compound": "Cc1cc([N+](=O)[O-])ccc1Oc1ccc(C(C)(C)c2cccc(C(C)(C)c3ccc(Oc4ccc([N+](=O)[O-])cc4C)cc3)c2)cc1", "measure": "melting point", "measured": "116 to 118 °C"}
{"compound": "CCCS(=O)(=O)NCC1CC2C=CC1C2 (stereo unspecified)", "measure": "melting point", "measured": "51 to 52 °C"}
{"compound": "O=C(NCCO)c1cccc(-c2ccc3c(c2)N(c2ccc(Cl)cc2Cl)CCCC3)c1", "measure": "melting point", "measured": "172 to 173 °C"}
{"compound": "O=C(O)c1ccc(-c2cnc(-c3ccc(C(F)(F)F)cc3)s2)cc1", "measure": "melting point", "measured": "294 to 295 °C"}
{"compound": "CCCCOc1c(CNC(=O)OC(C)(C)C)n(CC(C)C)c(=O)c2ccc(-c3nc(C#N)cs3)cc12", "measure": "melting point", "measured": "160 to 161 °C"}
{"compound": "COc1ccc(-c2ccc3c(c2)c2ccc(-c4ccc(OC)cc4)nc2n3S(=O)(=O)c2ccccc2)cc1", "measure": "melting point", "measured": "206 to 208 °C"}
{"compound": "CC(=O)NC[C@@H]1C[C@H]1c1cccc2nn(C)cc12 (relative stereo)", "measure": "melting point", "measured": "145 to 147 °C"}
{"compound": "NNc1ccnc(-c2ccc([N+](=O)[O-])o2)n1", "measure": "melting point", "measured": "220 to 222 °C"}
{"compound": "FC(F)(F)c1ccc(-c2ccc3nncn3n2)cc1", "measure": "melting point", "measured": "160 to 161 °C"}
{"compound": "CC12CCC(O)CC1=CCC1C2CCC2(C)C(n3ccnc3)=CCC12 (stereo unspecified)", "measure": "melting point", "measured": "220 to 223 °C"}
{"compound": "COc1cc(N)c(C(=O)c2ccnc(Cl)c2)cc1OC", "measure": "melting point", "measured": "132 to 134 °C"}
{"compound": "Cc1nnc(-c2ccccc2OCC2CO2)o1 (stereo unspecified)", "measure": "melting point", "measured": "38 to 40 °C"}
{"compound": "O=C(NCCO)/C(=C/c1ccc(OC2CC2)cc1)NC(=O)c1ccc(OCCc2ccc(Cl)cc2)cc1", "measure": "melting point", "measured": "66 to 69 °C"}
{"compound": "COc1cc(C2c3cc4c(cc3C(O)CC2C(=O)O)OCO4)cc(OC)c1OC (stereo unspecified)", "measure": "melting point", "measured": "181 to 182 °C"}
{"compound": "Cc1nn(CC(=O)c2ccc(Cl)cc2)c(=O)n1-c1ccc(N2CCN(c3ncc(O)cn3)CC2)cc1", "measure": "melting point", "measured": "225 °C"}
{"compound": "CC(C)(C)NC(=O)c1ccc(S(=O)(=O)N2C(=O)C(C)(c3ccccc3Cl)c3cc(O)ccc32)cc1 (stereo unspecified)", "measure": "melting point", "measured": "262 °C"}
{"compound": "Cc1cc2c(cc1Sc1ccc(C(=O)O)c(Cl)c1)C(C)(C)CCC2(C)C", "measure": "melting point", "measured": "202 to 205 °C"}
{"compound": "CCCCCCCCCCCCCCCCOCC(=O)O", "measure": "melting point", "measured": "64 to 66 °C"}
{"compound": "Nc1ccc(-c2ccc(N)cc2C(=O)OCCCCCCOc2ccc(-c3ccccc3)cc2)c(C(=O)OCCCCCCOc2ccc(-c3ccccc3)cc2)c1", "measure": "melting point", "measured": "122 to 124 °C"}
